# Tested on: NCI/ADR-RES
# assayProtocol: NCI tumour cell line growth inhibition, 48 h
Active and inactive are the calls of the source. Rule as the data show it: active = GI50 up to about 1.1 µM and inactive = higher.
parameterMeasured: GI50

Would you please look over these solved cases?
[Q] Need GI50 of c1ccc2c(c1)nc1n2C2CCC(C2)N1 (stereo not given) , thanks.
[A] > 10 µM (inactive)

[Q] Need GI50 of COc1ccc(-c2nc(-c3cnccn3)n(C3OC(CO)C(O)C(O)C3O)n2)cc1 (stereo not given) , thanks.
[A] > 100 µM (inactive)

[Q] Need GI50 of CN1CCC(O)(OC(=O)C(c2ccccc2)C2(O)CCCC2)CC1 (stereo not given) , thanks.
[A] > 100 µM (inactive)

[Q] Need GI50 of `NCC1CCCCC1.O=C(O)NCC1CCCCC1` , thanks.
[A] 26 µM (inactive)

[Q] Need GI50 of CN[C@@H](C)[C@H](OP(=O)(O)OC1[C@@H](O)[C@H](O)C(O)[C@H](O)[C@@H]1O)c1ccccc1 (stereo not given in full) , thanks.
[A] > 100 µM (inactive)

[Q] Need GI50 of `c1ccc(CCN2CCOCC2)nc1` , thanks.
[A] > 100 µM (inactive)

Could I get GI50 for every one of these entries?
1. CN(C)C(=O)C(F)(F)C(c1ccc(F)cc1)C1C(=O)N(C)C(=O)N(C)C1=O (stereo not given)
2. O=C1OC(c2ccc(O)c(F)c2)(c2ccc(O)c(F)c2)c2cccc3cccc1c23
3. O=S1(=O)NC2CCC3NS(=O)(=O)NC4CCC(N1)N4S(=O)(=O)N23 (stereo not given)
4. Cc1cc(O)c(C(C)C)cc1NC(=O)Nc1cccc2ccccc12
5. CC1=C(C)C(=O)C(C2=C(C3=CC(=O)C(C)=C(C)C3=O)C(=O)C(C)=C(C)C2=O)=CC1=O
6. CC1=C(C2=C(C)C(=O)C(=O)c3cc(C)ccc32)c2ccc(C)cc2C(=O)C1=O
7. C=C1CC[C@H]2C(C)=CC[C@H]3C(=C)C(=O)O[C@@H]3[C@@H]12
8. Cc1nc(N)nc(S)c1CCC(=O)O

[A]
1: > 100 µM (inactive); 2: 24.7 µM (inactive); 3: > 100 µM (inactive); 4: 20.9 µM (inactive); 5: 1.13 µM (inactive); 6: 0.274 µM (active); 7: > 100 µM (inactive); 8: > 100 µM (inactive)

[Q] Need GI50 of `c1ccc(/C(=N/Nc2cnccn2)c2ncccn2)cc1` , thanks.
[A] 83.2 µM (inactive)
